The measurements presented in this section are drawn from patent US9089544B2.

Assay: clinical
Conditions: human, in vivo, iv, 100 mg, AUC IV day 15
Measured Quantity: AUC (ng·h/mL)
The reply should be a number in ng·h/mL, with the unit left off.

Task: // returns reported AUC for input CC(=O)O[C@@]12CO[C@@H]1C[C@H](O)[C@@]1(C)C(=O)[C@H](O)C3=C(C)[C@@H](OC(=O)[C@H](O)[C@@H](NC(=O)OC(C)(C)C)c4ccccc4)C[C@@](O)([C@@H](OC(=O)c4ccccc4)[C@H]21)C3(C)C [docetaxel]
Output: 2100
